Test system: MINK;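 note: KINOMEscan kinase panel screen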
Construct: gene MINK1
Details: concentration: 1 μM, replicates: in singlicate; n = 1
Param label: returns class 1 when %Inh < 40%, returns class 0 otherwise, including exact equality.

[[record]]
smiles_structure = "COC(=O)c1c(-c2ccccc2)c2cc(Br)ccc2c(=O)n1Cc1ccc(S(C)(=O)=O)cc1"
classification = "class 1"

[[record]]
smiles_structure = "Nc1ncnc2c1ncn2-c1ccc(Cl)cc1"
classification = "class 1"

[[record]]
smiles_structure = "O=C(Nc1n[nH]c2cc(-c3ccccc3F)ccc12)C1CC1"
classification = "class 0"

[[record]]
smiles_structure = "COc1cc2ncn(-c3cc(OCc4ccncc4Br)c(C(N)=O)s3)c2cc1OC"
classification = "class 0"

[[record]]
smiles_structure = "COc1cc2ncn(-c3cc(OCc4ccc(S(C)(=O)=O)cc4)c(C(N)=O)s3)c2cc1OC"
classification = "class 1"

